Source listed as the kinase profiling compilation of Christmann-Franck et al. (2016).

Could you please report measured residual activity for the items listed next?
# target under test: PRKG2 (human) (UniProt Q13237)
# Sequence (Q13237 whole entry, looked up): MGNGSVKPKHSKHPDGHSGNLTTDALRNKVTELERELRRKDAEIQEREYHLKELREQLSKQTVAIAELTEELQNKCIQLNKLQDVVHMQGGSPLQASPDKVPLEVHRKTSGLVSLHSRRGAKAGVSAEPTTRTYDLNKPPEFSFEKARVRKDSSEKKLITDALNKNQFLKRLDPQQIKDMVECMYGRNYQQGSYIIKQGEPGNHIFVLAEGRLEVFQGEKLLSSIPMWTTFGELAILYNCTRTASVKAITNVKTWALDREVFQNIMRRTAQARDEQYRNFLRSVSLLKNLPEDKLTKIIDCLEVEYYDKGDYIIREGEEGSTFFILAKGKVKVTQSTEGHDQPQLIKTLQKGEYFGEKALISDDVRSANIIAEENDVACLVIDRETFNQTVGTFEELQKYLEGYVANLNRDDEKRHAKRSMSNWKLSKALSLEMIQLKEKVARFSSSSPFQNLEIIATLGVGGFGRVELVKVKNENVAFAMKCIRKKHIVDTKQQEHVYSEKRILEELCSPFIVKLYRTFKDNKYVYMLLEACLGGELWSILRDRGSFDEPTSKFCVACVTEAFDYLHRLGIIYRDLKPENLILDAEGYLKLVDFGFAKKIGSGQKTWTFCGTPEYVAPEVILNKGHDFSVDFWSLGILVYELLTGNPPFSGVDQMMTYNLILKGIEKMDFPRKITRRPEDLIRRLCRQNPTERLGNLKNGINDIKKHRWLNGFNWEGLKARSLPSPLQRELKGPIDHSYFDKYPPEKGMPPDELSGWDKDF
# protocol description: radiometric filter-binding kinase assay, Kinase HotSpot
# stated conditions: compound 0.5 µM; ATP 10 µM
Answer with a number only, understood to be in %.

Please tell me: residual activity of Nc1ncnc2[nH]nc(Nc3ccc(F)cc3)c12 , system PRKG2 (human) (UniProt Q13237)?
97

Report residual activity for COc1ccc2c(c[n+](C)c3c4cc5c(cc4ccc23)OCO5)c1OC tested on PRKG2 (human) (UniProt Q13237).
68.7

Give the reported residual activity for O=S(=O)(c1cccc2cnccc12)N1CCCNCC1 (system: PRKG2 (human) (UniProt Q13237)).
98.9

For the record COc1cc2ncnc(Nc3cccc(Cl)c3)c2cc1OC , what value of residual activity is listed for PRKG2 (human) (UniProt Q13237)?
92.2

---

# target under test: GRK5 (human) (UniProt P34947)
# Sequence (P34947 whole entry, looked up): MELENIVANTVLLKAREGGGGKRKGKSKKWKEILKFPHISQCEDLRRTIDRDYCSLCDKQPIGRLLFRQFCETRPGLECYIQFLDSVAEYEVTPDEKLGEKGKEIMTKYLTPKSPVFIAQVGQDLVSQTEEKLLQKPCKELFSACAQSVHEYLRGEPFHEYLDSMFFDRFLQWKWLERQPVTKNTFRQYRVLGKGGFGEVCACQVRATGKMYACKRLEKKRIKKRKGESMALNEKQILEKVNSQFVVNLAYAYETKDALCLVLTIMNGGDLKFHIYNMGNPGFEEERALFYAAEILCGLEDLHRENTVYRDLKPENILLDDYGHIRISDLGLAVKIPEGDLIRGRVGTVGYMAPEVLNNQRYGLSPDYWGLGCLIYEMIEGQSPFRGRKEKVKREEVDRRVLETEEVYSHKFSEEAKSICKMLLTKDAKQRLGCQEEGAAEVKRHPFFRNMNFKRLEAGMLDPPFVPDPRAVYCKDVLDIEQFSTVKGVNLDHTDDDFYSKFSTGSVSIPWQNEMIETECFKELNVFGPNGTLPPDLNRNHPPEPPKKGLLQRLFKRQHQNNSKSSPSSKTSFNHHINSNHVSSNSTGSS
# protocol description: radiometric filter-binding kinase assay, Kinase HotSpot
# stated conditions: compound 0.5 µM; ATP 10 µM
Consider the following molecules; for each one, report its residual activity.
I only need the number, in %, no unit after it.

Given the entry Cc1[nH]c(/C=C2\C(=O)Nc3ccc(S(=O)(=O)N(C)c4cccc(Cl)c4)cc32)c(C)c1C(=O)N1CCN(C)CC1 , what residual activity was observed with GRK5 (human) (UniProt P34947)?
98.9

Under GRK5 (human) (UniProt P34947): residual activity value of c1ccc(-c2n[nH]cc2-c2ccnc3ccccc23)nc1 ?
109

# returns recorded residual activity (system: GRK5 (human) (UniProt P34947)) for O=C1Nc2ccc(Cl)cc2/C1=C/c1cc(Cl)c(O)c(Cl)c1
95.8

Give the reported residual activity for O=c1cc(N2CCOCC2)oc2c1ccc1ccccc12 (system: GRK5 (human) (UniProt P34947)).
106

What reported residual activity corresponds to O=S(=O)(c1cccc2cnccc12)N1CCCNCC1 on GRK5 (human) (UniProt P34947)?
109

Short answer please: residual activity, GRK5 (human) (UniProt P34947), entry Nc1ncnc2c1c(-c1ccc(Oc3ccccc3)cc1)cn2C1CCCC1
102

Notebook entry, GRK5 (human) (UniProt P34947) assay: residual activity of CC(C)N(CCC(=O)c1ccc2ccccc2c1)Cc1ccccc1 = ?
93.7

Test system GRK5 (human) (UniProt P34947); read-out residual activity; what value for O=C(Nc1cccc(Nc2nccc(Nc3cccc(C(F)(F)F)c3)n2)c1)C1CC1 ?
104

Reported residual activity for GRK5 (human) (UniProt P34947), given N#C/C(=C(/N)Sc1ccc(N)cc1)c1ccccc1C(F)(F)F ?
102

Give residual activity (GRK5 (human) (UniProt P34947)) of the following molecule: COc1cc2ncnc(Nc3cccc(Cl)c3)c2cc1OC
105

Provide the documented residual activity with GRK5 (human) (UniProt P34947) as the system for CCC(=O)Nc1ccc2ncnc(Nc3cccc(Br)c3)c2c1
107

# value lookup — system GRK5 (human) (UniProt P34947), readout residual activity, item CCCC(=O)Oc1ccc2[nH]c(C(=O)c3cc4ccccc4[nH]3)cc2c1
100

Query the reported residual activity for GRK5 (human) (UniProt P34947); item: O=C1NC(=O)C(c2cn(CCCn3ccnc3)c3ccccc23)=C1Nc1ccccc1
90.9

What measured residual activity is associated with COc1ccc(COc2ccc(Cc3cnc(N)nc3N)cc2OC)cc1 on GRK5 (human) (UniProt P34947)?
109

Request body: readout residual activity, system GRK5 (human) (UniProt P34947), query N#CC(C#N)=C(N)/C(C#N)=C/c1ccc(O)cc1 . Return the value.
113

Which residual activity is reported with GRK5 (human) (UniProt P34947) for this entry: Nc1cccc(-c2cc3c(Oc4cccc(O)c4)ncnc3[nH]2)c1 ?
128

Identify the measured residual activity of O=C1NC(=O)c2c1c1c3ccccc3n3c1c1c2c2ccccc2n1C1CCC3O1 for GRK5 (human) (UniProt P34947).
88.7

residual activity of CCN(CC)C(=O)c1ccc(Nc2nc(OCC3CCCCC3)c3nc[nH]c3n2)cc1 on GRK5 (human) (UniProt P34947)?
98.8

Form entry - test system: GRK5 (human) (UniProt P34947); read-out: residual activity; molecule: CNC(=O)c1cc(Oc2ccc(NC(=O)Nc3ccc(Cl)c(C(F)(F)F)c3)cc2)ccn1
97.8

Test system GRK5 (human) (UniProt P34947); read-out residual activity; what value for COc1ccc2c(c[n+](C)c3c4cc5c(cc4ccc23)OCO5)c1OC ?
110

Hello, I am looking for reported residual activity with GRK5 (human) (UniProt P34947) for Nc1ncnc2[nH]nc(Nc3ccc(F)cc3)c12 . Could you help?
97.1

For the record CC(=O)c1ccc(N2CCOCC2)cc1O , what value of residual activity is listed for GRK5 (human) (UniProt P34947)?
108

For GRK5 (human) (UniProt P34947), provide residual activity of CC#CC(=O)Nc1cc2c(Nc3ccc(F)c(Cl)c3)ncnc2cn1 please.
105

// fetch GRK5 (human) (UniProt P34947) residual activity for Cc1ccc(Nc2nccc(N(C)c3ccc4c(C)n(C)nc4c3)n2)cc1S(N)(=O)=O
99.6

---

# target under test: CSNK1G3 (human) (UniProt Q9Y6M4)
# Sequence (Q9Y6M4 whole entry, looked up): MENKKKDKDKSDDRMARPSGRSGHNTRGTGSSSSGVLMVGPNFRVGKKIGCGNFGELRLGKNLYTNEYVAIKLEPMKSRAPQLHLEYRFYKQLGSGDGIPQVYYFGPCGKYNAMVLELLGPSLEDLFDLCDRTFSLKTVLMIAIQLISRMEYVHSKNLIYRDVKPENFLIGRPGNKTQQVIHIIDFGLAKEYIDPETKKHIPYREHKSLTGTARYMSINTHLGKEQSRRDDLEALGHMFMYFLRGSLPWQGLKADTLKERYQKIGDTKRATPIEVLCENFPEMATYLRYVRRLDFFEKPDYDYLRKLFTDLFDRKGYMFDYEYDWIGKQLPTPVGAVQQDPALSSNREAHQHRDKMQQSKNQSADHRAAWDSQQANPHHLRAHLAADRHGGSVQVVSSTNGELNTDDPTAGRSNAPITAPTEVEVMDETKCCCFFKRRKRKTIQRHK
# protocol description: radiometric filter-binding kinase assay, Kinase HotSpot
# stated conditions: compound 0.5 µM; ATP 10 µM
endpoint: residual activity (%)
// return numeric value only (unit: %, not printed)

I have this molecule here, Cc1ccc(Nc2nccc(N(C)c3ccc4c(C)n(C)nc4c3)n2)cc1S(N)(=O)=O , and I need its recorded residual activity.
97.1

Fill in the blank: the reported residual activity of COc1cc2ncnc(Nc3cccc(Cl)c3)c2cc1OC is ____.
92.4

Consider the molecule shown here: Cc1[nH]c(/C=C2\C(=O)Nc3ccc(S(=O)(=O)N(C)c4cccc(Cl)c4)cc32)c(C)c1C(=O)N1CCN(C)CC1 What is its recorded residual activity?
93.3

# input molecule: c1ccc(-c2n[nH]cc2-c2ccnc3ccccc23)nc1 ; wanted: its residual activity
96

Which measured residual activity value corresponds to Cc1ccc(NC2=CC(=O)c3sc(C)nc3C2=O)cc1 ?
90.1

Looking for the measured residual activity of O=C1NC(=O)C(c2cn(CCCn3ccnc3)c3ccccc23)=C1Nc1ccccc1 , can you help?
110

Which residual activity is listed for CCCC(=O)Oc1ccc2[nH]c(C(=O)c3cc4ccccc4[nH]3)cc2c1 ?
82.7

Sample CCN(CC)CCNC(=O)c1c(C)[nH]c(/C=C2\C(=O)Nc3ccc(Cl)cc32)c1C — what was its residual activity?
47.7

What does the data say about its residual activity? Entry: Nc1ccc2ncnc(NCCc3ccc(Oc4ccccc4)cc3)c2c1
96.8

Name the recorded residual activity for N#CC(C#N)=C(N)/C(C#N)=C/c1ccc(O)cc1 .
100

What value of residual activity has been reported for the following molecule? CNC(=O)c1cc(Oc2ccc(NC(=O)Nc3ccc(Cl)c(C(F)(F)F)c3)cc2)ccn1
99.8

Name the reported residual activity value associated with the molecule O=c1cc(N2CCOCC2)oc2c1ccc1ccccc12
98.1

If you can, please state the reported residual activity value of Nc1ncnc2[nH]nc(Nc3ccc(F)cc3)c12 .
97.9

---

# target under test: UniProt Q96GD4
# Sequence (Q96GD4 whole entry, looked up): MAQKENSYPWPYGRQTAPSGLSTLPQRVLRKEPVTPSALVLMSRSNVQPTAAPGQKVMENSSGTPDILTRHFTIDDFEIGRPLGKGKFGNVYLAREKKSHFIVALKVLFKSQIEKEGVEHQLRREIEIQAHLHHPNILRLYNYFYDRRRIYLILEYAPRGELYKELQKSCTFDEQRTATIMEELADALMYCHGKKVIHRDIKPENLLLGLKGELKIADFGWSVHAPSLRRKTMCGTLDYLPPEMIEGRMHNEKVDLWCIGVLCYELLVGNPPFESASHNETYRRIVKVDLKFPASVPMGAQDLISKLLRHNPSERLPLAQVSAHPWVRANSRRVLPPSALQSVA
# protocol description: radiometric filter-binding kinase assay, Kinase HotSpot
# stated conditions: compound 0.5 µM; ATP 10 µM
endpoint: residual activity (%)
Quick note: give the figure in %, leave out the unit.

Using the record for c1ccc(-c2n[nH]cc2-c2ccnc3ccccc23)nc1 , report its residual activity.
96

Need residual activity of CNc1cc2c(Nc3cccc(Br)c3)ncnc2cn1 , thanks.
76.3

Quick check: residual activity of Nc1ncnc2[nH]nc(Nc3ccc(F)cc3)c12 ?
96.9

What value of residual activity has been recorded for this entry: Nc1cccc(-c2cc3c(Oc4cccc(O)c4)ncnc3[nH]2)c1
71.9

Quick one: residual activity for c1ccc(-c2n[nH]c3c2oc2ccccc23)cc1 ?
50.8

Given N#CC(C#N)=C(N)/C(C#N)=C/c1ccc(O)cc1 , state its recorded residual activity.
91

May I ask what residual activity has been recorded for CC#CC(=O)Nc1cc2c(Nc3ccc(F)c(Cl)c3)ncnc2cn1 ?
101

// residual activity lookup, key: N#C/C(=C(/N)Sc1ccc(N)cc1)c1ccccc1C(F)(F)F
99.8

If you can, please state the reported residual activity value of O=c1cc(N2CCOCC2)oc2c1ccc1ccccc12 .
97.6

What measured residual activity goes with CCN(CC)C(=O)c1ccc(Nc2nc(OCC3CCCCC3)c3nc[nH]c3n2)cc1 ?
30.1

Report residual activity for Cc1[nH]c(/C=C2\C(=O)Nc3ccc(S(=O)(=O)N(C)c4cccc(Cl)c4)cc32)c(C)c1C(=O)N1CCN(C)CC1 please.
19.2

Can you look up the measured residual activity of O=C1NC(=O)C(c2cn(CCCn3ccnc3)c3ccccc23)=C1Nc1ccccc1 for me?
95.4

Can you share its residual activity? I mean this compound: O=C(Nc1cccc(Nc2nccc(Nc3cccc(C(F)(F)F)c3)n2)c1)C1CC1
72.8

Any idea what residual activity was measured for COc1ccc(COc2ccc(Cc3cnc(N)nc3N)cc2OC)cc1 ?
104

State the recorded residual activity for this entry: COc1cc2ncnc(Nc3cccc(Cl)c3)c2cc1OC
74.4

Can you share its residual activity? I mean this compound: CC(C)N(CCC(=O)c1ccc2ccccc2c1)Cc1ccccc1
101

Fill in the blank: the reported residual activity of Oc1cccc(-c2nc(N3CCOCC3)c3oc4ncccc4c3n2)c1 is ____.
99.4

Quick one: residual activity of CO[C@H]1CC2CC[C@@H](C)[C@@](O)(O2)C(=O)C(=O)N2CCCC[C@H]2C(=O)OC([C@H](C)C[C@@H]2CC[C@@H](O)[C@H](OC)C2)CC(=O)[C@H](C)/C=C(\C)[C@@H](O)[C@@H](OC)C(=O)[C@H](C)C[C@H](C)/C=C/C=C/C=C/1C (some centres undefined) ?
95.2

What value of measured residual activity is listed for CC(=O)c1ccc(N2CCOCC2)cc1O ?
91.4

Look at this compound and give its reported residual activity. CC[n+]1c(/C=C/N(C)c2ccccc2)n(-c2ccccc2)c2ccc(-c3nc4ccccc4s3)cc21
93.9

Given the compound O=C1NC(=O)/C(=C/c2ccc3c(c2)OC(F)(F)O3)S1 , what is its reported residual activity?
102

Tell me the measured residual activity of CCCC(=O)Oc1ccc2[nH]c(C(=O)c3cc4ccccc4[nH]3)cc2c1 , please.
97.1

I'd like to know its residual activity. The compound in question is Cc1ccc(S(=O)(=O)/C=C/C#N)cc1
92.3

Please give the measured residual activity for this compound: CCC(=O)Nc1ccc2ncnc(Nc3cccc(Br)c3)c2c1
95.4

Given the entry Cc1ccc(Nc2nccc(N(C)c3ccc4c(C)n(C)nc4c3)n2)cc1S(N)(=O)=O , report its measured residual activity.
64.6

Return reported residual activity; argument: CCN(CC)CCNC(=O)c1c(C)[nH]c(/C=C2\C(=O)Nc3ccc(Cl)cc32)c1C
31.9

Can you look up the measured residual activity of Nc1ccc2ncnc(NCCc3ccc(Oc4ccccc4)cc3)c2c1 for me?
99.1

So what does the record say about residual activity for CCN(CC)CCNC(=O)c1c(C)[nH]c(/C=C2\C(=O)Nc3ccc(F)cc32)c1C ?
48.7

Give the measured residual activity of Cc1ccc(NC2=CC(=O)c3sc(C)nc3C2=O)cc1 .
89.8
